MEASUREMENT TARGET: T1, Cynomolgus monkey NKp46 for immunization, screening, and testing (Kactus, NKP-CM146) (cynomolgus monkey, UniProt Q95JB9 22-254)
T1 construct: Bought protein; also called monkey NKp46 antigen protein; cynomolgus monkey NKp46 antigen
T1 sequence (Q95JB9 other isoform, or with tags, fused parts or gaps limits assumed): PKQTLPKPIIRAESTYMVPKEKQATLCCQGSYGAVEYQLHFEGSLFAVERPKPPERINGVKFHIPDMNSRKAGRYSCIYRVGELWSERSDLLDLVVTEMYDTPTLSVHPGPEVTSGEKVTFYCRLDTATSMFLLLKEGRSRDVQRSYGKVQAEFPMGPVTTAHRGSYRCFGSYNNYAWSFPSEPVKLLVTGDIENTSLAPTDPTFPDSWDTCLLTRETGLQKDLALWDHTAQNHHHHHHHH
EXPERIMENT SUMMARY: ELISA, coated antigen, VHH supernatant, anti-Myc HRP
Protocol: In order to obtain positive antibodies that can cross-bind to human NKp46 and cynomolgus monkey NKp46, the above libraries were amplified and added into M13K07 helper phage and assembled into bacteriophages. 1×10¹² pfu of immune camel antibody library and immune alpaca antibody library were added thereto, and the phages were incubated with biotinylated human NKp46 protein (8 μg/mL) bound to magnetic beads for 1 h at room temperature. […]
Below, each entry is listed alongside its reported ratio of OD450 to negative control.

NKp46-PA45 VHH (his and c-Myc labels) (VHH, IPTG-induced E. coli supernatant used in the screening ELISA; also called NKp46-PA45 clone supernatant; not shown: his and c-Myc labels) VHH: QVQLVESGGGLVQAGGSLRLLCAASGRTFSRLPMAWFRQGPGKDREFVAAISWSGGSTYYADSMKGRFTISRDNAKNTAYLQMNSLRLEDTAVYYCAAVGDSAPYSATIVYTDARAYAYWGQGTQVTVSS
> 3

Continue with the binder presented below.
ratio of OD450 to negative control reading for NKp46-PA15 VHH (his and c-Myc labels) (VHH, IPTG-induced E. coli supernatant used in the screening ELISA; also called NKp46-PA15 clone supernatant; not shown: his and c-Myc labels) VHH: QVQLVESGGGLVQAGDSLRVSCAASGRTFSTYAMGWFRQAPGKEREFVAASSRDGTTTYYADSVKGRFTISRDNAKNTVYLQMNSLKPEDTAVYYCAASRPLSTTQVGIASAWYEYWGQGTQVTVSS : > 3
